# system.name: T1, human CD3 on human T cells (human, UniProt P07766 23-207)
# T1 construct: Native TCR-CD3 complex on cells; also called primary human T cells; human pan T cells
# measurement.protocol: flow cytometry, Jurkat CD3+ (E6-1)
Would you mind telling me the reported geomean of each entry?

(Q) Which geomean is reported for this binder? BLW-3B4 (antibody, V domains shown, OmniRat hybridoma supernatant: human V regions on rat constant regions; also called V regions cloned as CD3B313 (CD3H218/CD3L125)) VH: QVQLQQSGPGLVKPSQTLSLTCAISGDSVFNNNAAWSWIRQSPSRGLEWLGRTYYRSKWLYDYAVSVKSRITVNPDTSRNQFTLQLNSVTPEDTALYYCVRGYSSSFDYWGQGTLVTVSS VL: QSALTQPASVSGSPGQSITISCTGTSRDIGTYKFVSWYQQHPDKAPKVLLYEVSKRPSGVSSRFSGSKSGNTASLTISGLQAEDQADYHCCSYAGSGTLLFGGGTKLTVL
(A) 199000 geometric mean fluorescence

(Q) Which geomean is reported for this binder? BLX-3G8 (antibody, V domains shown, OmniRat hybridoma supernatant: human V regions on rat constant regions; also called V regions cloned as CD3B317 (CD3H223/CD3L124)) VH: QVQLQQSGPGLVKPSQTLSLTCAISGDSVFNNNAAWTWIRQSPSRGLEWLGRTYYRSKWLYDYAVSVKSRITVNPDTSRNQFTLQLKSVTPEDTALYYCSRGYSSSFDYWGQGTLVTVSS VL: QSALTQPASVSGSPGQSITISCTGTSSNIGTYKFVSWYQQHPDKAPKVLLYEVSKRPSGVSSRFSGSKSGNTASLTISGLQAEDQADYHCCSYAGSGTLLFGGGTKLTVL
(A) 215000 geometric mean fluorescence
